Catalogue of specificity ELISA, fold over background values
Molecular target: S1-Fc (SARS-CoV-2, UniProt P0DTC2 16-685)
Assay: phage ELISA
# unit: fold over background | format: bare number

// solved cases for specificity ELISA, fold over background follow
| Binder | Measured |
| --- | --- |
| SARS-CoV-2 variant 1-31 (antibody, V domains shown) VH: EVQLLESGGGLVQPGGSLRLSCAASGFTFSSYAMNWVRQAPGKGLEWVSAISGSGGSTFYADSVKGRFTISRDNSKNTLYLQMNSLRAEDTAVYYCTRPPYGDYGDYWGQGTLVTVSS VL: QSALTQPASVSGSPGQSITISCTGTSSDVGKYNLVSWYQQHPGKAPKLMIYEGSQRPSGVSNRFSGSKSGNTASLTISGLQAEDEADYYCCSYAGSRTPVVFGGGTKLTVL | 15.7 |
| SARS-CoV-2 variant 1-30 (antibody, V domains shown) VH: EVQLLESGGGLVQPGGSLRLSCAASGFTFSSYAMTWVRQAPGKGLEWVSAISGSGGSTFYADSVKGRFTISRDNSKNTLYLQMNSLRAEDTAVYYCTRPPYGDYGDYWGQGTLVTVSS VL: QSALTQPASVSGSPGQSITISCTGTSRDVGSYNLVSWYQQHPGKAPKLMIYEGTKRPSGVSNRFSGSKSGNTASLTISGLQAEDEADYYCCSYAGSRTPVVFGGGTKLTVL | 5.6 |

# lookup: specificity ELISA, fold over background of SARS-CoV-2 variant 1-2 (antibody, V domains shown) VH: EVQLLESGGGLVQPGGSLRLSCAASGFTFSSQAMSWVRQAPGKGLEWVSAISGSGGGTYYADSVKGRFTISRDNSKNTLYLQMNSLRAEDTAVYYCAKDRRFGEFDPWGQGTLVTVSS VL: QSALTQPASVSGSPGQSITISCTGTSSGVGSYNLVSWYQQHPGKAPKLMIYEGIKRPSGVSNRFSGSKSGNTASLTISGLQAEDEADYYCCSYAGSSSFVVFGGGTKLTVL 1.7

Each recorded value in this set is attributed to patent US20210395344A1.
